# Protocol summary: Inhibition of TEAD(unknown origin)/YAP protein-protein interaction transfected in human SK-HEP1 cells incubated for 24 hrs by NanoLuc luciferase reporter assay
# Type: cell-based
Flag rule - IC50 less than 0.03 µM flags rule met; the remaining entries get rule not met.

Compound string | Label
Cc1snc2c1c1cc(C(=O)N[C@@H](C)CO)ccc1n2-c1ccc(C(F)(F)F)cc1 | rule not met
Cn1cc2c3cc(C(N)=O)ccc3n(-c3ccc(C(F)(F)F)cc3)c2n1 | rule not met
Cc1snc2c1c1cc(C(=O)N[C@@H](CO)c3ccn(C)n3)ccc1n2-c1ccc(C(F)(F)F)cc1 | rule met
Cc1snc2c1c1cc(C(=O)N[C@H](CO)c3ccccn3)ccc1n2-c1ccc(C(F)(F)F)cc1 | rule not met
Cn1cc2c3cc(C(=O)N[C@@H](CO)c4ccccn4)ccc3n(-c3ccc(C(F)(F)F)cc3)c2n1 | rule met
Cn1nc2c3cc(C(=O)NC4CC4)ccc3n(-c3ccc(C(F)(F)F)cc3)c2n1 | rule not met
Cn1ccc([C@H](CO)NC(=O)c2ccc3c(c2)c2nn(C)nc2n3-c2ccc(C(F)(F)F)cc2)n1 | rule not met
Cn1nc2c3cc(C(=O)N[C@@H](CO)c4ccccn4)ccc3n(-c3ccc(C(F)(F)F)cc3)c2n1 | rule not met
Cn1cc2c3cc(C(=O)NC4CC4)ccc3n(-c3ccc(C(F)(F)F)cc3)c2n1 | rule met
